assay: chemical genetic growth profiling, strain panel (AID 1159580);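 also: tested at 20 µM; growth read once vehicle control cultures reached saturation at 30 °C; 1 = growth at the plate median or of vehicle wells; lower values mean less growth of the strain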; conditions: S. cerevisiae deletion strains, growth OD, locus YBR021W, strain FUR4, stronger effect = lower value
In all, about 5,500 compounds went through this assay and about 2,000 (36%) were called active. Another 18% or so got no clear call; they are omitted. Some of the results follow.
Reported Property: normalized growth
Just the number, please, no unit attached.

Fill in the blank: the reported normalized growth of CC1(C)[C@@H]2CC[C@@]1(C)C(=O)C2 is ____.
1

Given the molecule CSCCC(N)C(=O)NC(CC(C)C)C(=O)NC(Cc1ccccc1)C(=O)O (stereo unspecified) , what is its reported normalized growth?
1.02

normalized growth lookup needed for CC1Cc2ccccc2N1NC(=O)c1ccc(Cl)c(S(N)(=O)=O)c1 (stereo unspecified) , thanks.
1.01

Quick check: normalized growth of CN(C)CC[C@H](c1ccc(Cl)cc1)c1ccccn1 ?
0.995

Fill in the blank: the reported normalized growth of O=C(O)c1ccccc1O is ____.
0.994

Fill blank: measured normalized growth of the molecule NC(N)=Nc1ccc(Cl)cc1 is ____.
1.01
